Ref: patent US9206432B2

test system: lacZ under control of the tetA promoter (PtetA) in E. coli KM3; assay type: cell-based; conditions: Table 4; nicosulfuron 20 ppm; 48 hrs at 30° C.
Here the recorded relative β-galactosidase activity, inducer Ns is given for each entry.
Reply with just the number.

Please review the following examples before continuing.
L1-24: SU-responsive TetR(B) variant, library L1 hit (protein, Sulfonylurea responsive repressor L1-24) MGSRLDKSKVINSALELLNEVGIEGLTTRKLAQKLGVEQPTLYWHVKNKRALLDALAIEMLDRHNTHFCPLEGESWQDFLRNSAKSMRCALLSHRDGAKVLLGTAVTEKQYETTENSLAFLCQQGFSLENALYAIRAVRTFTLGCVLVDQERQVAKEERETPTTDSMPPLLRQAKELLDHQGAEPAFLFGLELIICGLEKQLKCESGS | 0.3
L1-29: SU-responsive TetR(B) variant, library L1 hit, SEQ ID NO: 10 (protein, Sulfonylurea responsive repressor L1-29) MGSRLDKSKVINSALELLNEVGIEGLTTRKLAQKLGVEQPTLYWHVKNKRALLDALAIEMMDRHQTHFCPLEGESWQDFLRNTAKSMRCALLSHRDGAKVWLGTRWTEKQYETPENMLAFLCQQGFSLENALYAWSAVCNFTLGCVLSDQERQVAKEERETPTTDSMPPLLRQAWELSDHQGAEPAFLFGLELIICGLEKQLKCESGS | 0.1
L1-31: SU-responsive TetR(B) variant, library L1 hit (protein, Sulfonylurea responsive repressor L1-31) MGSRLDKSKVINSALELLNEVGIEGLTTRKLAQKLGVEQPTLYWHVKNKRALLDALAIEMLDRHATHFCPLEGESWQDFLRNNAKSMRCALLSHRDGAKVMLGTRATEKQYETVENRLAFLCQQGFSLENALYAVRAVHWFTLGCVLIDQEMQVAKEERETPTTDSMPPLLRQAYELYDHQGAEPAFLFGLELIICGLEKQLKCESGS | 0.5

Next, consider the following molecule.
Enquiry: Could you please provide reported relative β-galactosidase activity, inducer Ns for L1-20: SU-responsive TetR(B) variant, library L1 hit, SEQ ID NO: 6 (protein, Sulfonylurea responsive repressor L1-20) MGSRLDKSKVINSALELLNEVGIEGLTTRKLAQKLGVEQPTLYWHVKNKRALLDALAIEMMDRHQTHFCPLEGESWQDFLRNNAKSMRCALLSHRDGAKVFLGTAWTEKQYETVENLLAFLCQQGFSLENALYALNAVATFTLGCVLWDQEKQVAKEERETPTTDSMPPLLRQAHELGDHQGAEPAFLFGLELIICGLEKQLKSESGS ? Thanks!
Return: 1.6
